# target or system: ComD2 receptor (Streptococcus pneumoniae serotype 4, UniProt A0A0H2US84)
# Sequence (A0A0H2US84 entry or part of it): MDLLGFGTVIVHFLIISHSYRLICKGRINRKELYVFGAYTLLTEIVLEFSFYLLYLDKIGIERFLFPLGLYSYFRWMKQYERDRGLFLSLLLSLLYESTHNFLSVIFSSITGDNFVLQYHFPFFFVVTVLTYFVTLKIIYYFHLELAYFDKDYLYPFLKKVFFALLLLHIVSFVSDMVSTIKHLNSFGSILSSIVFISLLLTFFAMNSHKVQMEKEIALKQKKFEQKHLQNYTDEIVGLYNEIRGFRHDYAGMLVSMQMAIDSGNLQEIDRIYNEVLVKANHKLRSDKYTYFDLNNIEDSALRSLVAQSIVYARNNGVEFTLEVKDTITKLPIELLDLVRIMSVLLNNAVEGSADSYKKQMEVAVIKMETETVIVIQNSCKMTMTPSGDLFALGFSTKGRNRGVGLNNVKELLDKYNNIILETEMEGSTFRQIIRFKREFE
# assay summary: cell-based
pEC50: −log10 of the molar value.

molecule	pEC50
CC[C@H](C)[C@H](NC(=O)[C@H](Cc1ccccc1)NC(=O)[C@H](CC(=O)O)NC(=O)[C@H](CCCNC(=N)N)NC(=O)[C@H](Cc1ccccc1)NC(=O)[C@H](CCc1ccccc1)NC(=O)[C@H](CCCCN)NC(=O)[C@H](CO)NC(=O)[C@H](CC(C)C)NC(=O)[C@H](CCCNC(=N)N)NC(=O)[C@H](CCSC)NC(=O)[C@@H](N)CCC(=O)O)C(=O)N[C@@H](CC(C)C)C(=O)N[C@@H](CCC(N)=O)C(=O)N[C@@H](CCCNC(=N)N)C(=O)N[C@@H](CCCCN)C(=O)N[C@@H](CCCCN)C(=O)O [CSP1-F7HF]	6.50
CCCC[C@H](NC(=O)[C@@H](NC(=O)[C@H](Cc1ccccc1)NC(=O)[C@H](CC(=O)O)NC(=O)[C@H](CCCNC(=N)N)NC(=O)[C@H](Cc1ccccc1)NC(=O)[C@H](Cc1ccccc1)NC(=O)[C@H](CCCCN)NC(=O)[C@H](CO)NC(=O)[C@H](CC(C)C)NC(=O)[C@H](CCCNC(=N)N)NC(=O)[C@H](CCSC)NC(=O)[C@@H](N)CCC(=O)O)[C@@H](C)CC)C(=O)N[C@@H](CCC(N)=O)C(=O)N[C@@H](CCCNC(=N)N)C(=O)N[C@@H](CCCCN)C(=O)N[C@@H](CCCCN)C(=O)O [CSP1-L13NL]	< 6.00
CC[C@H](C)[C@H](NC(=O)[C@H](CCc1ccccc1)NC(=O)[C@H](CC(=O)O)NC(=O)[C@H](CCCNC(=N)N)NC(=O)[C@H](Cc1ccccc1)NC(=O)[C@H](Cc1ccccc1)NC(=O)[C@H](CCCCN)NC(=O)[C@H](CO)NC(=O)[C@H](CC(C)C)NC(=O)[C@H](CCCNC(=N)N)NC(=O)[C@H](CCSC)NC(=O)[C@@H](N)CCC(=O)O)C(=O)N[C@@H](CC(C)C)C(=O)N[C@@H](CCC(N)=O)C(=O)N[C@@H](CCCNC(=N)N)C(=O)N[C@@H](CCCCN)C(=O)N[C@@H](CCCCN)C(=O)O [CSP1-F11HF]	< 6.00

* * *

# target or system: ComD1 receptor (Streptococcus pneumoniae serotype 2, UniProt A0A0H2ZM50)
# Sequence (A0A0H2ZM50 entry or part of it): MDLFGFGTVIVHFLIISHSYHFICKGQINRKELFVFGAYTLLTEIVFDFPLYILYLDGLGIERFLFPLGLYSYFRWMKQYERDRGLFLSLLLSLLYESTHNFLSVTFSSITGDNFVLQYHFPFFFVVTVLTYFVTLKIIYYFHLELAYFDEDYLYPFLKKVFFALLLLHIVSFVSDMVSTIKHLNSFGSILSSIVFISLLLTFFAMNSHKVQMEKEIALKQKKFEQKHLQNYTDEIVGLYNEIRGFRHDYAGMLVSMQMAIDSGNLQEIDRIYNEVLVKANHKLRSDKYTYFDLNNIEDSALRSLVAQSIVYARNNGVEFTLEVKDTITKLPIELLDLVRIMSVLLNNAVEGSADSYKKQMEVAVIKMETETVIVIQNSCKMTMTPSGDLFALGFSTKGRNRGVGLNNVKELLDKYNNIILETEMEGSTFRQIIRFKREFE
# assay summary: cell-based
reported endpoint: EC50

compound	target or system	value
CC[C@H](C)[C@H](NC(=O)[C@H](CCc1ccccc1)NC(=O)[C@H](CC(=O)O)NC(=O)[C@H](CCCNC(=N)N)NC(=O)[C@H](Cc1ccccc1)NC(=O)[C@H](Cc1ccccc1)NC(=O)[C@H](CCCCN)NC(=O)[C@H](CO)NC(=O)[C@H](CC(C)C)NC(=O)[C@H](CCCNC(=N)N)NC(=O)[C@H](CCSC)NC(=O)[C@@H](N)CCC(=O)O)C(=O)N[C@@H](CC(C)C)C(=O)N[C@@H](CCC(N)=O)C(=O)N[C@@H](CCCNC(=N)N)C(=O)N[C@@H](CCCCN)C(=O)N[C@@H](CCCCN)C(=O)O [CSP1-F11HF]	ComD1 receptor (Streptococcus pneumoniae serotype 2, UniProt A0A0H2ZM50)	65.8 nM
CCCC[C@H](NC(=O)[C@H](CCCNC(=N)N)NC(=O)[C@H](CCSC)NC(=O)[C@@H](N)CCC(=O)O)C(=O)N[C@@H](CO)C(=O)N[C@@H](CCCCN)C(=O)N[C@@H](Cc1ccccc1)C(=O)N[C@@H](Cc1ccccc1)C(=O)N[C@@H](CCCNC(=N)N)C(=O)N[C@@H](CC(=O)O)C(=O)N[C@@H](Cc1ccccc1)C(=O)N[C@H](C(=O)N[C@@H](CC(C)C)C(=O)N[C@@H](CCC(N)=O)C(=O)N[C@@H](CCCNC(=N)N)C(=O)N[C@@H](CCCCN)C(=O)N[C@@H](CCCCN)C(=O)O)[C@@H](C)CC	ComD1 receptor (Streptococcus pneumoniae serotype 2, UniProt A0A0H2ZM50)	13.5 nM
CC[C@H](C)[C@H](NC(=O)[C@H](Cc1ccccc1)NC(=O)[C@H](CC(=O)O)NC(=O)[C@H](CCCNC(=N)N)NC(=O)[C@H](Cc1ccccc1)NC(=O)[C@H](CCc1ccccc1)NC(=O)[C@H](CCCCN)NC(=O)[C@H](CO)NC(=O)[C@H](CC(C)C)NC(=O)[C@H](CCCNC(=N)N)NC(=O)[C@H](CCSC)NC(=O)[C@@H](N)CCC(=O)O)C(=O)N[C@@H](CC(C)C)C(=O)N[C@@H](CCC(N)=O)C(=O)N[C@@H](CCCNC(=N)N)C(=O)N[C@@H](CCCCN)C(=O)N[C@@H](CCCCN)C(=O)O	ComD1 receptor (Streptococcus pneumoniae serotype 2, UniProt A0A0H2ZM50)	81.7 nM
